system: NOMO1; test: cell viability relative to DMSO control; higher = less cytotoxic; settings: RPMI 5 mM glucose + 10% FBS; 48 h; 0.0632 µM
Each item that follows carries a reported cell viability.
# unit: % | format: bare number

Some solved entries appear below for comparison.
MOLECULAR_STRING: CC(=O)Oc1ccccc1C(=O)O
ASSAY_RESULT: 97.9
--
MOLECULAR_STRING: COc1ccc(C[C@@H](C)[C@@H](C)Cc2ccc(OC)c(OC)c2)cc1OC
ASSAY_RESULT: 86.3
--
MOLECULAR_STRING: NC1(Cc2ccc(Cl)cc2)CCN(c2ncnc3[nH]ccc23)CC1
ASSAY_RESULT: 97.4
--
MOLECULAR_STRING: C[C@@H](NC1=CC=CC=C1C(O)=O)C/2=C/C(=C\N3C(=O)/C=C(\N=C23)N4CCOCC4)C
ASSAY_RESULT: 88.2

-- ask Retrieve cell viability measured for CC1(C)CCC[C@]2(C)[C@H]3CC(=O)O[C@]3(C)CC[C@@H]12 and print it.
-- reply 107

-- ask Retrieve cell viability measured for CN(Cc1cnc2nc(N)nc(N)c2n1)c1ccc(C(=O)N[C@@H](CCC(=O)O)C(=O)O)cc1 and print it.
-- reply 121

-- ask Retrieve cell viability measured for O=NN(CCCl)C(=O)NCCCl and print it.
-- reply 118

-- ask Retrieve cell viability measured for CCCCCOC(=O)NC\1=N\C(=O)N(\C=C1F)[C@@H]2O[C@H](C)[C@@H](O)[C@H]2O and print it.
-- reply 90.7

-- ask Retrieve cell viability measured for COC1=CC=CC=C1C2=CC=CC(=C2)C/3=C(O)/C4=CC(=C(Cl)C=C4NC3=O)C#N and print it.
-- reply 107

-- ask Retrieve cell viability measured for COc1cc2c(cc1-c1c(C)noc1C)ncc1[nH]c(=O)n([C@H](C)c3ccccn3)c12 and print it.
-- reply 111

----------
system: SEM cells; assay: cell viability relative to DMSO control; higher = less cytotoxic; conditions: HPLM + 10% dialyzed FBS; 48 h; 0.19 µM
Each item that follows carries a reported cell viability.
# unit: % | format: bare number

Some solved entries appear below for comparison.
MOLECULE: CC(NC1=CC=CC=C1)C\2=C\C(=C/N3C(=O)\C=C(/N=C23)N4CCOCC4)C (centres undefined)
cell viability [%]: 108
//
MOLECULE: CC/1=C/C(=O)N(O)/C(=C1)C2CCCCC2
cell viability [%]: 106
//
MOLECULE: C[C@](O)(COc1ccc(C#N)cc1)C(=O)Nc1ccc(C#N)c(C(F)(F)F)c1
cell viability [%]: 95.5
//
MOLECULE: CCc1cncnc1N1CCN(Cc2nc3cc(C(F)(F)F)ccc3[nH]2)CC1
cell viability [%]: 105
//
MOLECULE: ClC1=C(N\C2=N\CCN2)C3=NSN=C3C=C1
cell viability [%]: 105

-- ask Retrieve cell viability measured for CC1(C)CCC[C@]2(C)[C@H]3CC(=O)O[C@]3(C)CC[C@@H]12 and print it.
-- reply 95.2

-- ask Retrieve cell viability measured for CC(=O)Oc1ccccc1C(=O)O and print it.
-- reply 106

-- ask Retrieve cell viability measured for CN(Cc1cnc2nc(N)nc(N)c2n1)c1ccc(C(=O)N[C@@H](CCC(=O)O)C(=O)O)cc1 and print it.
-- reply 53.5

-- ask Retrieve cell viability measured for CO[C@H]1/C=C/O[C@@]2(C)Oc3c(C)c(O)c4c(O)c(c5c(nc6cc(C)ccn65)c4c3C2=O)NC(=O)/C(C)=C\C=C\[C@H](C)[C@H](O)[C@@H](C)[C@@H](O)[C@@H](C)[C@H](OC(C)=O)[C@@H]1C and print it.
-- reply 112

The measured values listed here are drawn from the supplement of paper PMC11451515.
